- study_target: histamine H3 receptor (Cavia porcellus, UniProt Q9JI35)
- Construct: determined by a guinea pig brain membrane assay; from tissue; host or cells: guinea pig brain membranes
- Sequence (Q9JI35 whole entry): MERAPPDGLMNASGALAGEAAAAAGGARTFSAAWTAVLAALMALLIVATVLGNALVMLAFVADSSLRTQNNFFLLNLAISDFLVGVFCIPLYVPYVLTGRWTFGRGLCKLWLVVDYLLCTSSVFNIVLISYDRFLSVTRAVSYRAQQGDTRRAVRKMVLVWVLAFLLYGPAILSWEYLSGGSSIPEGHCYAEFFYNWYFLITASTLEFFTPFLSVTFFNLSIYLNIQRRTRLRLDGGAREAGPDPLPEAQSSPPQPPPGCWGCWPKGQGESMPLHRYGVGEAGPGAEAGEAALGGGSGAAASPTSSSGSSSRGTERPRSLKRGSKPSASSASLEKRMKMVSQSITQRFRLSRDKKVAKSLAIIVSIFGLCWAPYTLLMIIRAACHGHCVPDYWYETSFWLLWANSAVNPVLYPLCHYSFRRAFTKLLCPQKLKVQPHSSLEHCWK
- experimental_details: Guinea pig brain membrane binding assay (displacement of radiolabeled N-alpha-methylhistamine, Korte et al.)
- assay_setup: guinea pig brain membranes; read-out: Ki
measured_attribute: Ki (nM)
Respond with the bare value in nM.

Tell me the measured Ki of COc1ccc(C/C(=N\O)C(=O)NCCc2c[nH]cn2)cc1Br , please.
280

The origin of these recorded values is patent EP0920315B1.
